# Tested on: A-375 cell line
# Test Summary: MTT assay, melanoma A-375 cell line
# Format: cell-based, human
# Particulars: Homo sapiens, A-375, 48 h, read-out: IC50 against A375
pIC50: −log10 of the molar value.
I'd be grateful if you could share measured pIC50 for these entries.

Item `Cc1ccc(C(=O)/C=C/c2ccc(Oc3nc4c(c(=O)n(C)c(=O)n4C)n3C)cc2)cc1` : provide pIC50
< 3.30

Item `Cn1c(=O)c2c(nc(Oc3ccc(/C=C/C(=O)c4cccc([N+](=O)[O-])c4)cc3)n2C)n(C)c1=O` : provide pIC50
< 3.30

Item `COc1ccc(/C=C/C(=O)c2ccc(Oc3nc4c(c(=O)n(C)c(=O)n4C)n3C)cc2)cc1` : provide pIC50
< 3.30

Item `COc1ccc(C(=O)/C=C/c2ccc(Oc3nc4c(c(=O)n(C)c(=O)n4C)n3C)cc2)cc1` : provide pIC50
3.60

Item `Cn1c(=O)c2c(nc(Oc3ccc(C(=O)/C=C/c4cccc([N+](=O)[O-])c4)cc3)n2C)n(C)c1=O` : provide pIC50
< 3.30

Item `Cn1c(=O)c2c(nc(Oc3ccc(/C=C/C(=O)c4ccc([N+](=O)[O-])cc4)cc3)n2C)n(C)c1=O` : provide pIC50
3.56

Item `Cn1c(=O)c2c(nc(Oc3ccc(/C=C/C(=O)c4ccc5ccccc5c4)cc3)n2C)n(C)c1=O` : provide pIC50
< 3.30

Item `Cn1c(=O)c2c(nc(Oc3ccc(/C=C/C(=O)c4ccc(Cl)cc4)cc3)n2C)n(C)c1=O` : provide pIC50
3.43
